Values from patent US20240279233A1

The entries below are paired with their reported solubility.
# assay_notes: Solubility assay in phosphate buffer
# setup_conditions: phosphate buffer, pH 7.4, aqueous buffer, kinetic from dmso stock, Solubility (μM), phosphate buffer 100 mM, pH 7.4, room temperature, 20-24 h, LC-UV
Expressed in µM, but write only the number.

Take a look at these entries with their results.
Cc1nnc(-c2cccc3nc4n(c23)[C@H](C)CCCCNC(=O)c2cccc(c2)C(=O)N4)n1C [Example 57]    95
C[C@H]1CCCCNC(=O)c2cccc(c2)C(=O)/N=C2\Nc3cccc(C(=O)N4C[C@H]5C[C@@H]4CN5C)c3N21 [Example 30]    95
[2H]C([2H])([2H])N(C(=O)c1cccc2c1N1/C(=N/C(=O)c3cccc(c3)C(=O)NCCCC[C@H]1C)N2)C([2H])([2H])[2H] [Example 64]    44
COc1ncccc1-c1cccc2nc3n(c12)CCCCCNC(=O)c1cccc(c1)C(=O)N3 [Example 28]    1.1
C[C@H]1CN(C)CCN1C(=O)c1cccc2c1N1CCCCCNC(=O)c3cccc(c3)C(=O)/N=C/1N2 [Example 24]    26.2

# input Which solubility reading was recorded for the compound O=C1/N=C2\Nc3cccc(C(=O)N4CCN(C5COC5)CC4)c3N2CCCCCNC(=O)c2cccc1c2 [Example 19] ?
# output 8.5

# input Which solubility reading was recorded for the compound CC1CCCCNC(=O)c2cccc(c2)C(=O)Nc2nc3cccc(C(=O)N4CCN(C)CC4)c3n21 (stereo not drawn) [Example 8] ?
# output 92.7

# input Form field: reported solubility of Cc1ccc2c(c1)nc1n2CCCCCNC(=O)c2cccc(c2)C(=O)N1 [Example 4]
# output 0.2

# input Need solubility, item C[C@H]1CCCCNC(=O)c2cccc(c2)C(=O)/N=C2\Nc3cccc(N4CCN(C)C4=O)c3N21 [Example 74]
# output 90

# input // returns reported solubility for input CN(C)[C@@H]1CCN(C(=O)c2cccc3c2N2CCCCCNC(=O)c4cccc(c4)C(=O)/N=C/2N3)C1 [Example 23]
# output 83.3

# input Form field: reported solubility of CN1CCCN(C(=O)c2cccc3c2N2CCCCCNC(=O)c4cccc(c4)C(=O)/N=C/2N3)CC1 [Example 26]
# output 78.7

# input // solubility lookup, key: O=C1/N=C2\Nc3ccc(C(=O)N4CCN(C5COC5)CC4)cc3N2CCCCCNC(=O)c2cccc1c2 [Example 98]
# output 4.7

# input Quick one: solubility for CC(C)(C)OC(=O)N1CCN(C(=O)c2cccc3nc4n(c23)CCCCCNC(=O)c2cccc(c2)C(=O)N4)CC1 [Example 14] ?
# output 0.3

# input Give its solubility value. Item: C[C@@H]1CN(C)CCN1C(=O)c1cccc2c1N1CCCCCNC(=O)c3cccc(c3)C(=O)/N=C/1N2 [Example 20]
# output 35

# input Entry CN1CCN(C(=O)c2ccc3nc4n(c3c2)CCCCCNC(=O)c2cccc(c2)C(=O)N4)CC1 [Example 97] has what solubility?
# output 5

# input // query solubility value for entry C[C@H]1CCCCNC(=O)c2cccc(c2)C(=O)Nc2nc3cccc(-c4ncnn4C)c3n21 [Example 86]
# output 33

# input Bench note: what solubility did COC1(C)CN(C(=O)c2cccc3c2N2/C(=N/C(=O)c4cccc(c4)C(=O)NCCCCC2C)N3)C1 (stereo not drawn) [Example 49] show?
# output 89

# input // returns reported solubility for input CC(C)N(C)C(=O)c1cccc2c1N1/C(=N/C(=O)c3cccc(c3)C(=O)NCCCCC1C)N2 (stereo not drawn) [Example 47]
# output 42

# input For the compound CN1CCN(Cc2ccc3c(c2)nc2n3CCCCCNC(=O)c3cccc(n3)C(=O)N2)CC1 [Example 102] , what solubility is on record?
# output 88
